Item-by-item account of Ca
Species on record: Rattus norvegicus
assay text: Open TG-GATES - Regimen: Single
Format: toxicity, organism-based, Sprague-Dawley
Design: regimen Single, gender Male, age 6 weeks
assay context: in vivo, po, 0 mg/kg, 9 h, tissue Plasma, route gavage, dose level Control
outcome measure: Ca (mg/dL)

[
  {
    "compound": "Cn1c(=O)c2[nH]cnc2n(C)c1=O.O",
    "readout value": 10.8
  },
  {
    "compound": "NC(=O)N/N=C/c1ccc([N+](=O)[O-])o1",
    "readout value": 11
  },
  {
    "compound": "CC(=O)Oc1ccccc1C(=O)O",
    "readout value": 10.4
  },
  {
    "compound": "COc1ccc(Cc2nccc3cc(OC)c(OC)cc23)cc1OC",
    "readout value": 10.9
  },
  {
    "compound": "NC(=O)N1c2ccccc2C=Cc2ccccc21 [CARBAMAZEPINE]",
    "readout value": 10.3
  },
  {
    "compound": "CCc1cc(C(N)=S)ccn1 [ETHIONAMIDE]",
    "readout value": 10.4
  },
  {
    "compound": "O=C(O)c1cn(C2CC2)c2cc(N3CCNCC3)c(F)cc2c1=O",
    "readout value": 10.9
  },
  {
    "compound": "CSc1ccc2c(c1)N(CCC1CCCCN1C)c1ccccc1S2 (stereo not given)",
    "readout value": 11.1
  },
  {
    "compound": "CN(C)CCC=C1c2ccccc2CCc2ccccc21",
    "readout value": 10.7
  },
  {
    "compound": "O=C(O)c1cc(/N=N/c2ccc(S(=O)(=O)Nc3ccccn3)cc2)ccc1O",
    "readout value": 10.5
  }
]

###

Organism: Rattus norvegicus
assay text: Open TG-GATES - Regimen: Single
Type: toxicity, organism-based, Sprague-Dawley
Design: regimen Single, gender Male, age 6 weeks
assay context: in vivo, po, 0 mg/kg, 24 h, tissue Blood, route gavage, dose level Control
outcome measure: PT (s)

[
  {
    "molecule": "CCc1cc(C(N)=S)ccn1 [ETHIONAMIDE]",
    "outcome measure": "PT",
    "readout value": 11.7
  },
  {
    "molecule": "O=C(O)c1cc(/N=N/c2ccc(S(=O)(=O)Nc3ccccn3)cc2)ccc1O [SULFASALAZINE]",
    "outcome measure": "PT",
    "readout value": 12.1
  },
  {
    "molecule": "CSc1ccc2c(c1)N(CCC1CCCCN1C)c1ccccc1S2 (stereo not given) [THIORIDAZINE]",
    "outcome measure": "PT",
    "readout value": 12.2
  },
  {
    "molecule": "NC(=O)N/N=C/c1ccc([N+](=O)[O-])o1 [NITROFURAZONE]",
    "outcome measure": "PT",
    "readout value": 14.8
  },
  {
    "molecule": "C[C@H](CS)C(=O)N1CCC[C@H]1C(=O)O [CAPTOPRIL]",
    "outcome measure": "PT",
    "readout value": 11.4
  }
]

###

Species on record: Rattus norvegicus
assay text: Open TG-GATES - Regimen: Daily Repeat
Assay type: toxicity, organism-based, Sprague-Dawley
Parameters: regimen Daily Repeat, gender Male, age 6 weeks
assay context: in vivo, po, 0 mg/kg, […], tissue Plasma, route gavage, dose level Control, time 14 day

[
  {
    "compound": "CCCC(CCC)C(=O)O [VALPROIC ACID]",
    "TG, mg/dL": 137.2
  },
  {
    "compound": "Cn1c(=O)c2[nH]cnc2n(C)c1=O.O [THEOPHYLLINE]",
    "TG, mg/dL": 135.4
  },
  {
    "compound": "CSc1ccc2c(c1)N(CCC1CCCCN1C)c1ccccc1S2 (centres undefined) [THIORIDAZINE]",
    "TG, mg/dL": 200.4
  },
  {
    "compound": "CN(C)CCC=C1c2ccccc2CCc2ccccc21 [AMITRIPTYLINE]",
    "TG, mg/dL": 128.8
  },
  {
    "compound": "C[C@H](CS)C(=O)N1CCC[C@H]1C(=O)O [CAPTOPRIL]",
    "TG, mg/dL": 152
  },
  {
    "compound": "COc1ccc2c(c1)c(CC(=O)O)c(C)n2C(=O)c1ccc(Cl)cc1 [INDOMETHACIN]",
    "TG, mg/dL": 130.4
  },
  {
    "compound": "CC(=O)Oc1ccccc1C(=O)O [ASPIRIN]",
    "TG, mg/dL": 152.8
  },
  {
    "compound": "NC(=O)N/N=C/c1ccc([N+](=O)[O-])o1 [NITROFURAZONE]",
    "TG, mg/dL": 119
  },
  {
    "compound": "CO[C@H]1/C=C/O[C@@]2(C)Oc3c(C)c(O)c4c(O)c(c(/C=N/N5CCN(C)CC5)c(O)c4c3C2=O)NC(=O)/C(C)=C\\C=C\\[C@H](C)[C@H](O)[C@@H](C)[C@@H](O)[C@@H](C)[C@H](OC(C)=O)[C@@H]1C [RIFAMPIN]",
    "TG, mg/dL": 205.8
  }
]

meta.source: ChEMBL document CHEMBL3885861
